Entries and their measured TGI follow.
# Tested on: EKVX NSCLC
# EXPERIMENT_DESCRIPTION: NCI tumour cell line growth inhibition, 48 h
ASSAY_METRIC: TGI

Cn1ccnc1C(=O)/C=C/c1ccc(CC(=O)Nc2cc(F)c(F)c(F)c2)cc1
7.41 µM
S=C1NNC(=S)NN1
> 1 µM
O=C1CSC2=NC3=C(COC/C3=C\c3ccc(F)cc3)C(c3ccc(F)cc3)N12 (stereo not given)
> 100 µM
CCN(CC)CCC1(C(=O)OC)SCCc2ccc(C)cc21 (stereo not given)
> 100 µM
CCCCCC(=O)OCC1(CO)C/C(=C/CC(C(C)C)C(C)C)C(=O)O1 (stereo not given)
> 75 µM
CC(C)(C)C1=CC(O)(c2c3ccccc3c(C3(O)C=C(C(C)(C)C)C(=O)C(C(C)(C)C)=C3)c3ccccc23)C=C(C(C)(C)C)C1=O
> 100 µM
O=C(O)CCC(NC(=O)/C(=C/c1ccccc1)NC(=O)c1ccccc1)C(=O)O (stereo not given)
> 100 µM
COC1OC2COC(c3ccccc3)OC2C(OC(=S)c2ccccc2)C1O (stereo not given)
5.82 µM
CSC(=N/N=C(\C)c1ccc(S(=O)(=O)N(C)c2ccccc2)cc1)SC
> 100 µM
O=C(/C=C/c1ccc(OCCCOc2ccc(/C=C/C(=O)c3ccc(Cl)cc3)cc2)cc1)c1ccc(Cl)cc1
> 100 µM

* * *

# Tested on: UACC-257 melanoma
# EXPERIMENT_DESCRIPTION: NCI tumour cell line growth inhibition, 48 h
ASSAY_METRIC: TGI

S=C1NC2=C(CCOc3c2ccc2ccccc32)C(c2ccc(Cl)cc2)N1 (stereo not given)
> 100 µM
C/C(=C\c1ccccc1)n1c(=O)cc(C)n1C
> 100 µM
O=C1/C(=C/Cc2ccco2)N=C(c2ccccc2)N1c1nc2c(Cl)cc(Cl)cc2s1
> 100 µM
Clc1ccc2c(NCCNc3nc(Cl)nc4ccccc34)ccnc2c1
3.54 µM
Cc1cccc2c1C(=O)/C(=C/c1ccccc1C(=O)O)C2
> 100 µM
CCOc1c(Cc2ccccc2)c(=O)n2c3ccccc3n3c(=O)n(C)c(=O)c1c23
> 100 µM
Cc1cccc(Cc2cnc(NC(=O)/C=C/c3ccco3)s2)c1
> 100 µM
CCOC(=O)CCC(NC(=O)c1ccc(Nc2nc3cc(N)cc(N)c3nc2-c2ccccc2)cc1)C(=O)OCC (stereo not given)
13.7 µM
COc1cc2ccc(C(=O)O)cc2cc1OC
> 100 µM
CC1CCCc2c(CC3CC(=O)NC(=O)C3)nc(N)nc21 (stereo not given)
> 100 µM
O=C(OCC(OC(=O)c1ccccc1)C1CC(C(O)C2CCCCC2)C(=O)O1)c1ccccc1 (stereo not given)
> 100 µM
N#CCCCCCn1c2ccccc2c2c3c(c4c5ccccc5[nH]c4c21)C(=O)N(O)C3=O
5.45 µM
CN(C)CCSc1nccc(-c2ccc(-c3ccnc(SCCN(C)C)n3)s2)n1
31.1 µM
CCOC(=O)CCC1(C(=O)O[C@@H]2C[C@H](C)CC[C@H]2C(C)C)CCCCC1=O (stereo not given in full)
60 µM
COC1OC(=O)C(OC)C(OC)C1OC (stereo not given)
> 100 µM
CC1CC/C(=C\c2ccc(F)cc2)C2=C1C(c1ccc(F)cc1)NC(=S)N2 (stereo not given)
> 100 µM
C(=N\Nc1nnc(-c2nnc(N/N=C/c3ccccc3)o2)o1)/c1ccccc1
> 10 µM
O=C1NC(=Nc2ccccc2Cl)SC1C(=O)Nc1ccc([N+](=O)[O-])cc1[N+](=O)[O-] (stereo not given)
> 100 µM
Fc1sc2c(c1F)C1CCC2C1 (stereo not given)
> 100 µM
CC1(C)CC(=O)C=C(NC(=O)c2ccccc2)C1
> 100 µM
O=C1c2ccccc2-c2c1c1ccccc1c(=O)n2CCCNCCO
4.39 µM
O=C(Nc1ccc(Oc2cccc(Cl)c2)c(Cl)c1)c1cccnc1
27 µM
CCN(CC)CCC1(C(=O)OC)SCCc2ccc(C)cc21 (stereo not given)
> 100 µM
C/C(=C\COc1ccc2ccc(=O)oc2c1)CCC(=O)C(C)(C)O
> 100 µM
COc1ccc(C2CCc3c(cnc4nc(N)nc(N)c34)C2)cc1 (stereo not given)
> 100 µM
CSC(=N/N=C(\C)c1ccc(S(=O)(=O)N(C)c2ccccc2)cc1)SC
> 100 µM
O=[N+]([O-])C1(CO)COC2(OC1)c1ccccc1-c1ccccc12
> 100 µM
Cn1ccnc1C(=O)/C=C/c1ccc(CC(=O)Nc2cc(F)c(F)c(F)c2)cc1
10.1 µM
CC(C)c1cc(C(C)C)c(B(c2ccccc2)c2ccccc2)c(C(C)C)c1Br
> 100 µM
[O-][n+]1cc(SCc2ccccc2)ncc1SCc1ccccc1
> 10 µM
C=CCN1C(=O)C/C(=C2/CCC(=O)N2CC=C)C1=O
> 100 µM
O=C(Nc1ccc(I)cc1F)c1cc(F)ccc1O
2.89 µM
COC1OC2COC(c3ccccc3)OC2C(OC(=S)c2ccccc2)C1O (stereo not given)
> 100 µM
CC(C(=O)C(C)O[Si](c1ccccc1)(c1ccccc1)C(C)(C)C)=P(c1ccccc1)(c1ccccc1)c1ccccc1 (stereo not given)
13.5 µM
NC(=O)c1nnc2c(F)cccc2c1N
> 100 µM
Cn1cc(C2=C(c3cn(C)c4cc(Cl)ccc34)C(=O)NC2=O)c2ccccc21
> 25 µM
Cn1c(-c2cccs2)cc(-c2ccsc2)c1-c1ccsc1
> 100 µM
N#Cc1c(NC(=S)Nc2ccccc2)sc2c1CCCC2
> 100 µM
O=C(c1cccs1)N(C(=O)N1CCCCC1)c1ccccc1
> 100 µM
O=C1CSC(c2cc3cc(Br)ccc3nc2Cl)N1c1ccc(F)c(Cl)c1 (stereo not given)
> 50 µM

* * *

# Tested on: NCI-H522 lung
# EXPERIMENT_DESCRIPTION: NCI tumour cell line growth inhibition, 48 h
Label true (1) for high-side TGI (at or above 30 µM) and false (0) for low-side TGI (below it).

O=C(O)CSc1nnc(COc2ccccc2)n1-c1ccccc1
true (1)
CC1CC2OC(=N)C1(C#N)C2(C#N)C#N (stereo not given)
true (1)
O=C(N(C1=CCCC1)N(c1ccccc1)c1ccccc1)C(F)(F)F
false (0)
CSC(=N/N=C(\C)c1ccc(S(=O)(=O)N(C)c2ccccc2)cc1)SC
true (1)
COc1ccc2c(c1)/C(=N/OC(C)=O)c1c-2c(Nc2ccc(/C(C)=N/OC(C)=O)cc2)nc2ccccc12
true (1)
Fc1sc2c(c1F)C1CCC2C1 (stereo not given)
true (1)
CC(=O)O[C@H]1Cc2c([nH]c3ccccc23)[C@@H](c2ccc(Cl)cc2)N1C(=O)CCNC(C)(C)C
false (0)
Cc1cc(N)c2cc(NC(=O)CCCCCCCCC(=O)Nc3ccc4nc(C)cc(N)c4c3)ccc2n1
false (0)
Cc1nc(=O)n2c(c1C(=O)Nc1ccc(Cl)cc1)NCCC2
true (1)
CC1=NNC(N)=N/C1=C\C(Sc1ccc(Cl)cc1)c1ccc(Cl)cc1Cl (stereo not given)
false (0)

* * *

*1 amine or outer side, *2 acyl side, *3 side chain or, on linkers, in order; H or OH if unused. Where a SMILES comes first, the peptide text is derived from it. [ ]: non-standard residue; d: D form. The star is where a group is joined. X12 = NCCCCC(N[*:1])C(=O)CN1CCCC1C(=O)[*:2]; Pentadecanoyl = CCCCCCCCCCCCCCC(=O)*
Parameter GI50, tested on MDA-MB-435, listed per item.
ASSAY_METRIC: GI50

Cn1cc(C2=C(c3cn(C)c4cc(Cl)ccc34)C(=O)NC2=O)c2ccccc21
0.0475 µM
COC(=O)[C@@H](C)C[C@H](Cc1ccccc1)NC(=O)c1csc([C@@H](C[C@H](C(C)C)N(C)C(=O)[C@@H](NC(=O)CN(C)C)C2CC2)OC(C)=O)n1
0.00192 µM
Cc1cncc2cccc(S(=O)(=O)N3CCCNC[C@@H]3C)c12
> 100 µM
CO[C@H]1/C=C/C=C/C=C/C[C@H](OC(=O)[C@@H](C)NC(=O)C2CCCCC2)[C@H](C)[C@@H](O)/C(C)=C\CCC2=CC(=O)C=C(NC(=O)C1)C2=O
0.154 µM
CCOC(=O)Nc1ccc2nc(Sc3ccc(Cl)cc3)sc2c1
0.222 µM
COc1ccc(C2C3=C(COC3=O)N(CCO)c3cc4c(cc32)CCC4)cc1OC (stereo not given)
0.132 µM
CCCCCCCCCCCCCCC(=O)NC(CCCCN)C(=O)CN1CCCC1C(=O)NCC(=O)NC(Cc1ccccc1)C(=O)N1CCCC1C(=O)NC(CO)C(=O)NC(Cc1ccc(O)cc1)C(=O)NC(CCCCN)C(=O)NC(CC(C)C)C(=O)NC(CCCN=C(N)N)C(=O)N1CCCC1C(=O)NCC(N)=O (stereo not given) (Pentadecanoyl-[X12]GFPSYKLRPG-NH2; configuration not given here)
28.2 µM
C=C1C(=O)O[C@H]2[C@H]1CC/C(COC(=O)c1ccc(Br)cc1)=C\CC[C@@]1(C)O[C@@H]21
1.79 µM
CC[C@@]1(O)C(=O)N(CCN(C)C)Cc2c1cc1n(c2=O)Cc2cc3ccccc3nc2-1
> 100 µM
O=C(CN1CCN(c2cc3c(cc2F)c(=O)c(C(=O)O)cn3C2CC2)CC1)Nc1ccc(C(=O)/C=C/c2ccccc2)cc1
2.94 µM
CN(C)CC1CCCCCCCCCCC1=O (stereo not given)
> 100 µM
O=C(c1nc2ccccc2[nH]1)C1C(c2cccc([N+](=O)[O-])c2)C2CC3CCCCC3N2[C@@]12C(=O)Nc1cc(Cl)ccc12 (stereo not given in full)
1.65 µM
CCN(CC)CCn1nc2c3c(cccc3c1=O)-c1ccccc1-2
2.96 µM
CCN(CC)c1ccc(/C=C2/NC(=O)NC2=O)cc1
0.42 µM
Cn1cc(C2=C(c3cccc(Cl)c3)C(=O)NC2=O)c2ccccc21
12.6 µM
c1ccc(-c2nn(-c3ccccc3)[n+](-c3ccccc3-c3ccccc3)n2)cc1
0.461 µM
CCN(Cc1cccc(C)c1)c1ccc(CO)c(Cl)c1
15.7 µM
Fc1ccc(-c2ncn(C3CCNCC3)c2-c2ccnc(Oc3ccc(Oc4ccccc4)cc3)n2)cc1
3.92 µM
COC(=O)C12CC(NC(=O)c3csc([C@@H](C[C@H](C(C)C)N(C)C(=O)[C@@H](NC(=O)[C@H]4CCCCN4C)C(C)C)OC(C)=O)n3)(C1)C2
0.000165 µM
COc1ccc(OC)c(/C=C/C(=O)c2ccc(SC)cc2)c1
2.09 µM

The measurements presented in this section are drawn from PubChem BioAssay (NCI).
